# Test system: human cervix epithelioid carcinoma cell line
# assayExplanation: M.T.T. assay in vitro, human cervix epithelioid carcinoma
# Type: cell-based
# experimentalParameters: Homo sapiens, read-out: ID50
readoutType: IC50 (µM)
API: value field is a number in µM; no unit string.

Exercise: For human cervix epithelioid carcinoma cell line, provide IC50 of `O=C1c2ccccc2C(=O)c2c(NCCNCCO)ccc(NCCNCCO)c21` please.
Key: 50

Cited source: patent US5162320A
